molecular target: human serum albumin (HSA) (Homo sapiens, UniProt P02768); construct: I (residues 1–195), II (196–383), and III (384–585); purchased Sigma; test: Fluorescence quenching of HSA with addition of extra anions (KClO4, KNO3); type: binding; settings: Set A: +extra ClO4− (KClO4, 1:4 ratio); HSA 5 µM
Sequence (P02768 25-609): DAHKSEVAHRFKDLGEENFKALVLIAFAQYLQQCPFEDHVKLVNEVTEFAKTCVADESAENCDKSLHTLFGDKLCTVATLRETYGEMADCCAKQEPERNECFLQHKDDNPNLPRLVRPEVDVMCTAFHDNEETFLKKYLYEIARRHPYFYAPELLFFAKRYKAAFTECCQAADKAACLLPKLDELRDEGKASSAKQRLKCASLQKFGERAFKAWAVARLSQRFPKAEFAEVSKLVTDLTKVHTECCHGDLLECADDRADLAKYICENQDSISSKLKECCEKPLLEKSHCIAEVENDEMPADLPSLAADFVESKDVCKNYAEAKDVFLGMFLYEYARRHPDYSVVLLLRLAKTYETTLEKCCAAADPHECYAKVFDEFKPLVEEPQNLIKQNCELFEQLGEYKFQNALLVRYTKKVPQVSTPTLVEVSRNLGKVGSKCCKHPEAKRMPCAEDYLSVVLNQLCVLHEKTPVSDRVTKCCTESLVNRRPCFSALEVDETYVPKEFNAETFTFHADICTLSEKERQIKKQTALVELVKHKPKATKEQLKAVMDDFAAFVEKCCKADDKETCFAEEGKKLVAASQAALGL
Give measured K, binding constant for each item. Keep answers brief.

Recall the recorded K, binding constant for O=[N+]([O-])[O-].[Ag+].c1ccc2c(c1)[nH]c1cnccc12.c1ccc2c(c1)[nH]c1cnccc12 [Compound 2, [Ag(Hnor)2](NO3)] with human serum albumin (HSA) (Homo sapiens, UniProt P02768) and state it.
6.05 10^10 M^−1

Recall the recorded K, binding constant for [Ag+].[O-][Cl+3]([O-])([O-])[O-].c1ccc2c(c1)[nH]c1cnccc12.c1ccc2c(c1)[nH]c1cnccc12 [Compound 1, [Ag(Hnor)2](ClO4)] with human serum albumin (HSA) (Homo sapiens, UniProt P02768) and state it.
17.2 10^10 M^−1

Recall the recorded K, binding constant for F[B-](F)(F)F.[Ag+].c1ccc2c(c1)[nH]c1cnccc12.c1ccc2c(c1)[nH]c1cnccc12 [Compound 4, [Ag(Hnor)2](BF4)] with human serum albumin (HSA) (Homo sapiens, UniProt P02768) and state it.
1.19 10^10 M^−1

Recall the recorded K, binding constant for CC#N.F[P-](F)(F)(F)(F)F.[Ag+].c1ccc2c(c1)[nH]c1cnccc12.c1ccc2c(c1)[nH]c1cnccc12 [Compound 3, [Ag(Hnor)2(MeCN)](PF6)] with human serum albumin (HSA) (Homo sapiens, UniProt P02768) and state it.
0.46 10^10 M^−1
